# Species: Rattus norvegicus
# Experiment Summary: Open TG-GATES - Regimen: Single
# Format: toxicity, organism-based, Sprague-Dawley
# Design: regimen Single, gender Male, age 6 weeks
# Study Conditions: in vivo, po, 100 mg/kg, 6 h, tissue Blood, route gavage, dose level High
Reported Property: WBC (x10_2/uL)
Numbers only, in x10_2/uL.

For the 4 compounds below, give their WBC values.
1. CN(C)CCCN1c2ccccc2CCc2ccccc21
2. CN(C)CCN(Cc1cccs1)c1ccccn1
3. CC1=C(/C=C/C(C)=C/C=C/C(C)=C/CO)C(C)(C)CCC1
4. CN(C)CCCN1c2ccccc2CCc2ccc(Cl)cc21

Output:
1. 74.4
2. 73.4
3. 110
4. 69.9

* * *

# Organism: Rattus norvegicus
# Experiment Summary: Open TG-GATES - Regimen: Daily Repeat
# Type: toxicity, organism-based, Sprague-Dawley
# Design: regimen Daily Repeat, gender Male, age 6 weeks
# Study Conditions: in vivo, po, 100 mg/kg, 72 h, tissue Blood, route gavage, dose level Low, time 3 day
Reported Property: Fbg

These solved cases illustrate the format of a correct answer.
[
  {
    "Molecule": "CCOC(=O)CCC(=O)O[C@H]1[C@H](O[C@@H]2[C@@H](C)[C@H](O[C@H]3C[C@@](C)(OC)[C@@H](O)[C@H](C)O3)[C@@H](C)C(=O)O[C@H](CC)[C@@](C)(O)[C@H](O)[C@@H](C)C(=O)[C@H](C)C[C@@]2(C)O)O[C@H](C)C[C@@H]1N(C)C [ERYTHROMYCIN ETHYLSUCCINATE]",
    "Value Observed": "324.6 mg/dL"
  },
  {
    "Molecule": "COc1ccc2[nH]c([S+]([O-])Cc3ncc(C)c(OC)c3C)nc2c1 (stereo not given)",
    "Value Observed": "214.2 mg/dL"
  },
  {
    "Molecule": "NC(N)=Nc1nc(CSCCC(N)=NS(N)(=O)=O)cs1",
    "Value Observed": "225.2 mg/dL"
  }
]

For the 2 molecules below, give their Fbg values.
1. COC1=CC(=O)C[C@@H](C)[C@]12Oc1c(Cl)c(OC)cc(OC)c1C2=O
2. CCOc1ccc(NC(=O)CC(C)O)cc1 (stereo not given)

Output:
220 mg/dL
309.6 mg/dL

* * *

# Species: Rattus norvegicus
# Experiment Summary: Open TG-GATES - Regimen: Daily Repeat
# Type: toxicity, organism-based, Sprague-Dawley
# Parameters: regimen Daily Repeat, gender Male, age 6 weeks
# Study Conditions: in vivo, po, 0 mg/kg, […], tissue Plasma, route gavage, dose level Control, time 7 day
Reported Property: GLC (mg/dL)
Answers are plain numbers, in mg/dL.

These solved cases illustrate the format of a correct answer.
[
  {
    "Compound": "CN(C)CCN(Cc1cccs1)c1ccccn1",
    "GLC [mg/dL]": 182.4
  },
  {
    "Compound": "COC1=CC(=O)C[C@@H](C)[C@]12Oc1c(Cl)c(OC)cc(OC)c1C2=O",
    "GLC [mg/dL]": 206.8
  },
  {
    "Compound": "CCCNC(=O)NS(=O)(=O)c1ccc(Cl)cc1 [CHLORPROPAMIDE]",
    "GLC [mg/dL]": 185.6
  }
]

For the 2 compounds below, give their GLC values.
1. O=C(CCCN1CCC(O)(c2ccc(Cl)cc2)CC1)c1ccc(F)cc1
2. NNC(=O)c1ccncc1

Output:
196
223.8
